Assay: in vitro
Conditions: human, WI38 cells
Description: Selectivity index, ratio of IC50 against human WI38 cells to IC50 for Trypanosoma brucei brucei Lister 427 bloodstream forms
metric: selectivity ratio

query: Tell me the measured selectivity ratio of `C=C[C@H]1CN2CC[C@H]1C[C@@H]2[C@@H](O)c1cc(CC[C@@H](C)[C@H]2CC[C@H]3[C@@H]4C[C@H](O)[C@@H]5C[C@H](O)CC[C@]5(C)[C@H]4CC[C@]23C)nc2ccc(OC)cc12` , please.
result: 2.5

query: Proceed to `C=C[C@H]1CN2CC[C@H]1C[C@@H]2[C@@H](O)c1cc(CC[C@@H](C)[C@H]2CC[C@H]3[C@@H]4[C@H](OC(C)=O)[C@H](OC(C)=O)[C@@H]5C[C@H](OC(C)=O)CC[C@]5(C)[C@H]4CC[C@]23C)nc2ccc(OC)cc12`
result: 5.8

query: Proceed to `C=C[C@H]1CN2CC[C@H]1C[C@@H]2[C@@H](O)c1cc(CC[C@@H](C)[C@H]2CC[C@H]3[C@@H]4[C@H](O)[C@H](O)[C@@H]5C[C@H](O)CC[C@]5(C)[C@H]4CC[C@]23C)nc2ccc(OC)cc12`
result: 6.2

query: Proceed to `C=C[C@H]1CN2CC[C@H]1C[C@H]2[C@H](O)c1cc(CC[C@@H](C)[C@H]2CC[C@H]3[C@@H]4[C@H](OC(C)=O)[C@H](OC(C)=O)[C@@H]5C[C@H](OC(C)=O)CC[C@]5(C)[C@H]4CC[C@]23C)nc2ccc(OC)cc12`
result: 8.3
